Assay: COS7 lysate on small-molecule microarray, probe aHis, 635 nm (AID 1123);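 further: z-score combines 667nm fluorescence intensity with signal-to-noise per printed compound spot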
Conditions: COS7 cell lysate, fluorescence, higher = more signal
Recorded Endpoint: composite z-score

Some compounds with recorded composite z-score:
Compound: C=CCOC(=O)[C@@H]1[C@H]2C(=O)O[C@H](c3ccccc3)[C@H](c3ccccc3)N2[C@H](c2ccc(OCCOC(=O)[C@@H]3C[C@@H]4C(=O)N5CCC[C@H]5C(=O)N4[C@@H]3c3cccc(OCCO)c3)cc2)[C@@]12C(=O)Nc1ccc(I)cc12
Recorded Endpoint: composite z-score
Readout Value: 1.34
--
Compound: COC(=O)[C@@]1(Cc2ccc(F)cc2)[C@H]2c3cc(C(=O)N4CCCC4)n(Cc4ccccc4)c3C[C@H]2CN1C(=O)c1ccccc1
Recorded Endpoint: composite z-score
Readout Value: 2.25
--
Compound: C=C(/C(=C/C[C@@H](OC(=O)c1ccncc1)c1ccccc1OCCO)c1cnc2ccccc2c1)C(C)C
Recorded Endpoint: composite z-score
Readout Value: 1.5

For each of the compounds below, state composite z-score.
1. OCc1ccc(-c2cc[n+](Cc3cccc(OC(F)(F)F)c3)cc2)cc1
2. CN(C)CCCN1C(=O)[C@@]2(Cc3ccccc31)c1ccccc1C(=O)N(Cc1ccccc1)[C@H]2c1ccc(CO)cc1
3. C[N+](C)(C)CCCC[C@@H]1NC(=O)[C@H]2C[C@@H](C(=O)NCCCCCCN)[C@@H](c3cccc(OCCO)c3)N2C1=O
4. CCCCC(O)C1C=CC2C(=O)N(Cc3ccccc3)C(=O)C2N1n1cnnc1 (configuration not stated)

[reply]
1. 0.813
2. -0.258
3. 2.07
4. 1.4

* * *

Biological target: Streptavidin (Streptomyces avidinii)
Experiment: compounds binding control protein streptavidin – biophysical, small-molecule microarray, 635/667 nm fluorescence, artefact control for SMM compound annotation, primary screen (AID 1147);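 further: signal reflects streptavidin binding to arrayed compounds as a control protein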
Conditions: higher = more signal
I'd appreciate it if you could supply composite z-score values for the items below.
Give bare numbers.

Compound: C[N+](C)(C)CCCCNC(=O)[C@H]1C[C@H]2C(=O)NCC(=O)N2[C@H]1c1ccc(O)cc1
composite z-score: 0.158
--
Compound: C=CC[C@@]1(C(=O)NCC(O)CO)N=C(c2ccc(OCCCO)cc2)O[C@@H]1c1ccccc1 (some centres undefined)
composite z-score: 0.145
--
Compound: CCC[C@@H]1C[C@@]1(CCC)[C@@H](NC(=O)c1cccs1)c1ccc(Cl)cc1
composite z-score: -0.7

Hi! Can you tell me composite z-score for each of these compounds?
1. C=CC[C@]1(C(=O)NCC(O)CO)N=C(c2ccc(OCCCO)cc2)O[C@H]1c1ccccc1N=[N+]=[N-] (some centres undefined)
2. COCC1=C([C@H](O)CCc2ccccc2)[C@H](CO)[C@@H]2C(=O)N(C)C(=O)[C@@H]2C1
3. C[C@@H]1ON(c2ccccc2)[C@H](c2ccccc2)[C@H]1C(=O)N1C(=O)OC[C@H]1Cc1ccccc1
4. C=C[C@H](C)[C@H](OC(=O)Nc1ccc(SC)cc1)c1ccc(O)c2ccccc12
5. OCc1ccc(-c2cc[n+](Cc3cccc(OC(F)(F)F)c3)cc2)cc1
6. COC(=O)C(CC#Cc1ccc2c(c1)[C@]1(C(=O)N2)[C@H](c2ccc(OCCO)cc2)N2[C@H](c3ccccc3)[C@H](c3ccccc3)OC(=O)[C@H]2[C@@H]1C(=O)O)C(=O)OC

[reply]
1.4
-0.11
1.9
-0.635
1.24
0.344
